target: DNA dC->dU-editing enzyme APOBEC-3G (Homo sapiens) (UniProt Q9HC16); assay: qHTS for Inhibitors of Vif-A3G Interactions: qHTS; conditions: HeLa A3G-eYFP + Vif (tagged APOBEC3G with the HIV-1 protein that degrades it), YFP fluorescence, overnight; series mostly up to 46.1 µM; also: nearly all actives have a fitted effect of over 60% in size
Sequence (Q9HC16 whole entry, looked up): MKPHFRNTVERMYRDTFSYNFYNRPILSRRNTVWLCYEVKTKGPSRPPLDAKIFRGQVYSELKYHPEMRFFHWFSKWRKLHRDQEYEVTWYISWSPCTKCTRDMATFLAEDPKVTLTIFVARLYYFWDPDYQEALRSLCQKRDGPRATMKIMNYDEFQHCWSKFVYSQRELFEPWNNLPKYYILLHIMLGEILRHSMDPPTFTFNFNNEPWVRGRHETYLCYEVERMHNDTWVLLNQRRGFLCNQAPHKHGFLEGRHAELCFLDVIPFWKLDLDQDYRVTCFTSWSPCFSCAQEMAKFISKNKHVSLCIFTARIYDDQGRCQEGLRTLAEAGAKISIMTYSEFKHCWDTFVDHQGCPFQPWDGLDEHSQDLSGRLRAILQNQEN
Hit rate of the full screen: of about 410,000 compounds, about 310 (0.076%) were called active. Inconclusive results (about 2%) are left out. Calls follow the shape of the dose curve; as a rule, active = well fitted curve in the direction sought with a large enough effect; inconclusive = small, poorly fitted or top-dose-only effect; inactive = flat fitted curve, though single readings scatter. The full list was thinned out, with actives kept by preference.
Classes used: class 1 (active), class 0 (inactive)

                            compound_string                           target_of_assay  class_assignment
0  CC/C(=N\NC(=O)c1ccccc1O)c1c(O)n(Cc2ccccc2)c(=O)[nH]c1=O  DNA dC->dU-editing enzyme APOBEC-3G (Homo sapiens) (UniProt Q9HC16)           class 1
1  O=c1[nH]c(=O)n(Cc2ccccc2)c(O)c1/C=N/Nc1c(F)c(F)c(F)c(F)c1F  DNA dC->dU-editing enzyme APOBEC-3G (Homo sapiens) (UniProt Q9HC16)           class 0
2  ClCCN(CCCl)c1ccc(C=Nc2ccc(/C=C/c3ccnc4ccccc34)cc2)cc1  DNA dC->dU-editing enzyme APOBEC-3G (Homo sapiens) (UniProt Q9HC16)           class 0
3  CCC(=NCCc1ccccc1)c1c(O)n(C2CCCCC2)c(=O)[nH]c1=O  DNA dC->dU-editing enzyme APOBEC-3G (Homo sapiens) (UniProt Q9HC16)           class 0
